# System: 242566-281-R-J2-PDC complex spheroid viability;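 note: spheroids exposed to compounds for 7 days before readout; 100% = DMSO vehicle control wells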
# protocol.summary: Anticancer human tumor 242566-281-R-J2-PDC patient-derived pancreatic carcinoma cell line growth inhibition [CLK]
# recorded.conditions: second compound 0.1 µM; first compound 0.0949 µM; active compounds read low
measure.name: viability, T/C

Data point: NC(=O)C(=Cn1cnc(-c2cc(C(F)(F)F)cc(C(F)(F)F)c2)n1)c1cncnc1 + CNC(=O)c1ccc(Nc2nc(OC3CCCC3)c3c(-c4ccc5nc(C)oc5c4)c[nH]c3n2)c(OC)c1 ; viability, T/C = 130%

GET /value?item= CC(C)CC(NC(=O)C(Cc1ccccc1)NC(=O)c1cnccn1)B(O)O (stereo unspecified) + CN1CCN(c2cc(C(=O)Nc3cc4cc(-c5cnn(C)c5)ccc4cn3)ccn2)CC1 &field=viability, T/C returns 0.39%

response.value for CC(C)CC(NC(=O)C(Cc1ccccc1)NC(=O)c1cnccn1)B(O)O (stereo unspecified) + CNC(=O)c1ccc(Nc2nc(OC3CCCC3)c3c(-c4ccc5nc(C)oc5c4)c[nH]c3n2)c(OC)c1 (field: viability, T/C) = 0.35%

Quick note, viability, T/C for NC(=O)C(=Cn1cnc(-c2cc(C(F)(F)F)cc(C(F)(F)F)c2)n1)c1cncnc1 + CN1CCN(c2cc(C(=O)Nc3cc4cc(-c5cnn(C)c5)ccc4cn3)ccn2)CC1 landed at 84.4%

Entry C=CC(=O)Nc1cc(Nc2nccc(-c3cn(C)c4ccccc34)n2)c(OC)cc1N(C)CCN(C)C + CNC(=O)c1ccc(Nc2nc(OC3CCCC3)c3c(-c4ccc5nc(C)oc5c4)c[nH]c3n2)c(OC)c1 — recorded viability, T/C = 95.5%

C=CC(=O)Nc1cc(Nc2nccc(-c3cn(C)c4ccccc34)n2)c(OC)cc1N(C)CCN(C)C + CN1CCN(c2cc(C(=O)Nc3cc4cc(-c5cnn(C)c5)ccc4cn3)ccn2)CC1 has a reported viability, T/C of 79.8%
